target: human GLP-1 receptor (human, UniProt P43220 24-463); assay: cell-based or functional assay
Provide the reported EC50 human of each item.
Just the number please, in nM, no unit attached.

Query :: What value of EC50 human has been reported for the following binder? HGEGTFTSDVSSYLEGQEAKEKIAWLVKGRG (side-chain cyclic lactam between Glu18 and Lys22 (counted on the peptide; GLP-1 positions 24 and 28); C-terminal amide) [[Gly8]GLP1(7-37) cyclo[Glu18-Lys22] (SEQ ID NO: 39)]
Result :: 0.8

Query :: What value of EC50 human has been recorded for this entry: HGEGTFTSDVSSYLEGQAAKEFIAWLVKGRG (side-chain cyclic lactam between positions 21 (Glu) and 26 (Lys) (GLP-1 numbering; residues 15 and 20 of the entry); C-terminal amide) [[Gly8]cyclo[21-26] GLP1(7-37)-amide (SEQ ID NO: 42)]
Result :: 0.6

Query :: What value of EC50 human has been reported for the following binder? HGEGTFTSDVSSYLEGQAKKEFIAWLVKGRG (side-chain cyclic lactam between Glu15 and Lys19 (counted on the peptide; GLP-1 positions 21 and 25); C-terminal amide) [[Gly8]GLP1(7-37) cyc[Glu15-Lys19] (SEQ ID NO: 36)]
Result :: 0.15

Query :: So what does the record say about EC50 human for HGEGTFTSDVSSYLEEQAAXEFIAWLVKGRG (ornithine at position 26 (GLP-1 numbering; residue 20 of the entry); side-chain cyclic lactam between Glu22 and Orn26; C-terminal amide, Not pegylated) [cycloE22-O26 (SEQ ID NO: 69)] ?
Result :: 0.051

The measurements presented in this section are drawn from patent US20100048468A1.
